assay: Cytotoxicity against African green monkey Vero E6 cells infected with SARS-CoV-2 assessed as reduction of cell viability measured after 48 hrs by MTT assay; assay type: cell-based, Vero C1008; conditions: chlorocebus sabaeus
measured-parameter: CC50 at 48 h

(Q) CC50 at 48 h lookup needed for "COc1ccc2c(c1)c(CC(=O)O)c(C)n2C(=O)c1ccc(Cl)cc1" , thanks.
(A) > 100 µM

----------
tested on: Vero C1008; experiment: Cytotoxicity against African green monkey Vero E6 cells assessed as reduction of cell viability measured after 72 hrs by MTT assay; assay type: cell-based; conditions: chlorocebus sabaeus, vero c1008, 72 h
measured-parameter: CC50

(Q) CC50 lookup needed for "COc1ccc2c(c1)c(CC(=O)NCCCCCCC(=O)N[C@H](C(=O)N1C[C@H](O)C[C@H]1C(=O)N[C@@H](C)c1ccc(-c3scnc3C)cc1)C(C)(C)C)c(C)n2C(=O)c1ccc(Cl)cc1" , thanks.
(A) > 200 µM

(Q) CC50 lookup needed for "CCC(CC)COC(=O)[C@H](C)N[P@](=O)(OC[C@H]1O[C@@](C#N)(c2ccc3c(N)ncnn23)[C@H](O)[C@@H]1O)Oc1ccccc1" , thanks.
(A) 373 µM

(Q) CC50 lookup needed for "COc1ccc2c(c1)c(CC(=O)O)c(C)n2C(=O)c1ccc(Cl)cc1" , thanks.
(A) > 500 µM

(Q) CC50 lookup needed for "COc1ccc2c(c1)c(CC(=O)NCCCCC(=O)N[C@H](C(=O)N1C[C@H](O)C[C@H]1C(=O)N[C@@H](C)c1ccc(-c3scnc3C)cc1)C(C)(C)C)c(C)n2C(=O)c1ccc(Cl)cc1" , thanks.
(A) > 200 µM

(Q) CC50 lookup needed for "COc1ccc2c(c1)c(CC(=O)NCCOCCOCC(=O)N[C@H](C(=O)N1C[C@H](O)C[C@H]1C(=O)N[C@@H](C)c1ccc(-c3scnc3C)cc1)C(C)(C)C)c(C)n2C(=O)c1ccc(Cl)cc1" , thanks.
(A) > 200 µM

(Q) CC50 lookup needed for "COc1ccc2c(c1)c(CC(=O)NCCN1CCN(C(=O)CCC(=O)N[C@H](C(=O)N3C[C@H](O)C[C@H]3C(=O)N[C@@H](C)c3ccc(-c4scnc4C)cc3)C(C)(C)C)CC1)c(C)n2C(=O)c1ccc(Cl)cc1" , thanks.
(A) > 250 µM

# credit: ChEMBL document CHEMBL5036342
